Listed here: items and their measured IC50 (radioligand displacement).
- TEST SYSTEM: Human CB2 (Homo sapiens, UniProt P34972)
- Construct: expressed in transfected cells; membrane preparation
- Sequence (P34972 whole entry): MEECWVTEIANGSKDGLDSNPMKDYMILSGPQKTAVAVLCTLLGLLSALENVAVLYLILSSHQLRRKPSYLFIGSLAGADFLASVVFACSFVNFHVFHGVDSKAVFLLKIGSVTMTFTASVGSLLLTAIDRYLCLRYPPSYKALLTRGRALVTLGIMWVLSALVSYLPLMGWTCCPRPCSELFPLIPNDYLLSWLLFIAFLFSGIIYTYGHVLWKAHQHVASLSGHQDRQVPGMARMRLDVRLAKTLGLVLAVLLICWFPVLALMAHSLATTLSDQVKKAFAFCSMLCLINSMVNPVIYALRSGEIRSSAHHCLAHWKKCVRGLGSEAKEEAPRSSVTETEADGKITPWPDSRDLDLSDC
- ASSAY: Human CB2 Radioligand Binding Assay
- TEST PARAMETERS: membranes from stably transfected CHO CB2 cells; competition with [3H] CP-55,940; read-out: CB2 Ligand Binding Asssay

COMPOUND	RECORDED METRIC	RESULT
CC(C)(C)c1cccc(C2c3cccn3CCCN2C(=O)Nc2ccc(Cl)cc2Cl)c1 (centres unmarked)	IC50 (radioligand displacement)	> 1000 nM
CC(C)(C)c1ccc(C2c3cccn3CCCN2C(=O)c2ccc(Cl)cc2Cl)cc1 (centres unmarked)	IC50 (radioligand displacement)	< 1000 nM
O=C(Nc1ccc(C(F)(F)F)cc1)C1CCn2cccc2C1c1ccccc1 (mixture of isomers)	IC50 (radioligand displacement)	> 1000 nM
CC(C)(C)c1ccc(C2c3cccn3CCN2C(=O)Nc2ccc(Cl)cc2Cl)cc1 (centres unmarked)	IC50 (radioligand displacement)	< 1000 nM
CC(C)(C)c1ccc(C2c3cccn3CCCN2C(=O)Nc2ccc(F)cc2F)cc1 (centres unmarked)	IC50 (radioligand displacement)	< 1000 nM
CC(C)(C)c1ccc(C2c3cccnc3CCCN2C(=O)Nc2ccc(F)cc2F)cc1 (centres unmarked)	IC50 (radioligand displacement)	< 1000 nM
CC(C)(C)c1ccc(C2c3nccn3CCCN2C(=O)Nc2ccc(Cl)cc2Cl)cc1 (centres unmarked)	IC50 (radioligand displacement)	> 1000 nM
CC(C)(C)c1ccc(C2=C(NC(=O)Nc3ccc(C(F)(F)F)cc3)CCCn3cccc32)cc1	IC50 (radioligand displacement)	< 1000 nM

Query :: Lab note: need IC50 (radioligand displacement) with Human CB2 (Homo sapiens, UniProt P34972) for entry `O=C(Nc1ccc(F)cc1F)C1=C(c2ccccc2)c2cccn2CC1` , please look it up.
Result :: > 1000 nM

Query :: // repeat for CC(C)(C)c1ccc(C2c3nccn3CCCN2C(=O)Nc2ccc(F)cc2F)cc1 (centres unmarked) and report
Result :: < 1000 nM

Query :: // repeat for O=C(Nc1ccc(C(F)(F)F)cc1)[C@H]1CCCn2cccc2[C@@H]1c1ccccc1 (relative stereo) and report
Result :: > 1000 nM

Query :: // repeat for CC(C)(C)c1ccc(C2c3cccnc3OCCN2C(=O)Nc2ccc(Cl)cc2Cl)cc1 (centres unmarked) and report
Result :: > 1000 nM

Query :: // repeat for CC(C)(C)c1ccc(C2c3cccnc3CCCN2C(=O)Nc2ccc(F)c(F)c2)cc1 (centres unmarked) and report
Result :: < 1000 nM

Query :: // repeat for O=C(Nc1ccc(F)cc1F)N1CCCn2cccc2C1c1ccc(OC(F)(F)F)cc1 (centres unmarked) and report
Result :: < 1000 nM

Query :: // repeat for CC(C)(C)c1ccc(CC2[C@@H]3CCCN3CCCN2C(=O)Nc2ccc(Cl)cc2)cc1 (mixture of isomers) and report
Result :: > 1000 nM

Query :: // repeat for CC(C)(C)c1ccc(C2c3cccn3CCCC2C(=O)Nc2ccc(F)c(F)c2)cc1 (centres unmarked) and report
Result :: < 1000 nM

Query :: // repeat for O=C(Nc1ccc(F)c(F)c1)C1CCn2cccc2C1c1ccccc1 (mixture of isomers) and report
Result :: > 1000 nM

###

- TEST SYSTEM: Human CB2 (Homo sapiens)
- Construct: expressed in transfected cells; membrane preparation
- ASSAY: Human CB2 Radioligand Binding Assay
- TEST PARAMETERS: membranes from stably transfected CHO CB2 cells; competition with [3H] CP-55,940; read-out: CB2 Ligand Binding Asssay
Listed here: items and their measured IC50 (radioligand displacement).

Record excerpt, results attached:
COMPOUND	RECORDED METRIC	RESULT
O=C(Nc1ccc(Cl)cc1)[C@H]1CCCn2cccc2[C@H]1c1ccccc1 (relative stereo)	IC50 (radioligand displacement)	< 1000 nM
CC(C)(C)C1CCC(C2c3cccn3CCCN2C(=O)Nc2ccc(F)c(F)c2)CC1 (stereo not shown)	IC50 (radioligand displacement)	< 1000 nM
CC(C)(C)c1ccc(C2=C(C(=O)Nc3ccc(C(F)(F)F)cc3)CCCn3cccc32)cc1	IC50 (radioligand displacement)	< 1000 nM

Query :: Lab note: need IC50 (radioligand displacement) with Human CB2 (Homo sapiens) for entry `CC(C)(C)c1ccc(C2=C(C(=O)Nc3ccc(Cl)cc3Cl)CCCn3cncc32)cc1` , please look it up.
Result :: > 1000 nM

Query :: // repeat for CC(C)(C)c1ccc(C2c3cccn3CCCC2NC(=O)Nc2ccc(Cl)cc2)cc1 (mixture of isomers) and report
Result :: > 1000 nM

Query :: // repeat for `CC(C)(C)c1ccc(C2=C(NC(=O)Nc3ccc(Cl)cc3)CCCn3cccc32)cc1` and report
Result :: < 1000 nM

Query :: // repeat for O=C(Nc1ccc(Cl)cc1Cl)N1CCCn2cccc2C1c1ccccc1 (stereo not shown) and report
Result :: > 1000 nM

Query :: // repeat for CC(C)(C)c1ccc(CC2c3cccn3CCCN2C(=O)Nc2ccc(F)cc2F)cc1 (stereo not shown) and report
Result :: < 1000 nM
